Molecular target: T1, LNX2_2, Q8N448
T1 sequence (Q8N448 334-432, limits assumed, looked up): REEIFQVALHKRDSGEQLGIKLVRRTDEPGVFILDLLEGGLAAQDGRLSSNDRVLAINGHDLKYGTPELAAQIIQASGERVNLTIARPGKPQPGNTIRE
Experiment: holdup assay
Design: key: below the threshold = too weak to quantify, mostly under pKd 3.1 to 4
Settings: plain residues with an end cap or a label only (N-terminal biotin on a linker: ado-ado)
recorded_metric: pKd

Look over these answered cases.
NISYRRESAI [KCNJ4, P48050]: below the threshold
GEDRSPPTAL [MKNK1, Q9BUB5]: below the threshold
NTLNRKTTPV [CACNG8, Q8WXS5]: below the threshold
LKDDELKTKL [SLCO1A2, P46721]: below the threshold
QRPYRRGSEI [KCNJ18, B7U540]: below the threshold

Quick one: give me pKd for each item below, same order please.
1. RQKEVRESKC [SCN8A, Q9UQD0]
2. KKMLQRRTLL [OR8G1, Q15617]

["below the threshold", "below the threshold"]

Hi, could you look up pKd for each item in my list?
1. NNNVVKVDSV [MTNR1A, P48039]
2. QLSFNTDTLC [ABCA2, Q9BZC7]
3. EDGESWEYQI [TRPV6, Q9H1D0]

1. below the threshold
2. 3.78
3. below the threshold

# per-item lookup of pKd; items listed below
1. GIKKITSTAL [RPS6KA3, P51812]
2. ARSAAASNYV [CLDN4, O14493]
3. PTPDLPQTRV [KLHDC7A, Q5VTJ3]

1: below the threshold; 2: 4.04; 3: below the threshold

For each of the binders below, state pKd.
1. IDESKKEWLI [CNTNAP2, Q9UHC6]
2. KSRVAFFEEL [NF2, P35240;P35240-1]
3. AQRARSPSDV [GPR12, P47775]
4. EPQYQPGENL [SRC, P12931]
5. AAVENKVTDL [PLXNB1, O43157]
6. DDASLPVSDV [PLEKHA1, Q9HB21]

4.77
below the threshold
3.57
below the threshold
below the threshold
below the threshold

For each of the binders below, state pKd.
1. SRSVVESDEL [MYPN, Q86TC9]
2. TNSRHGETTV [FZD2, Q14332]
3. SPDRDRESIV [SCN5A, Q14524]

1. below the threshold
2. 4.83
3. 4.44
